Items are presented alongside their recorded inhibition.
EXPERIMENT NOTES: inhibitors of TNFa-induced NFkB p65 translocation, primary screen, imaging, HUVEC, MLSMR starter and 10KST1 sets (AID 438);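 also: compound added about 3h40 before a 20 min TNFalpha stimulation; signal is the nuclear over cytoplasmic p65 intensity ratio per well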
SETUP CONDITIONS: HUVEC TNFa-induced p65 nuclear translocation; at 2 µM, active compounds read high, 0% TNFa-plus-vehicle, 100% no-TNFa wells
Give a bare numeral; the unit % is implied.

Reference set (7 entries):
> print(dat)
                        structure.as.smiles  quantity.kind  test.value
1            Cc1csc(NC(=O)c2ccccc2C(=O)O)n1     inhibition           9
2  COc1ccc(C)cc1NC(=O)c1nnn(Cc2cccc(F)c2)c1N     inhibition        -0.2
3          COc1cccc(C=Nc2ccc3c(c2)OCCO3)c1O     inhibition         5.1
4      CC(C)(C)NS(=O)(=O)c1ccc(CCC(=O)O)cc1     inhibition         4.2
5     COc1ccc(OC)c(C(=O)c2ccc(C(=O)O)cc2)c1     inhibition        10.6
6  CCCCCCC(c1c(C)n(C)n(-c2ccccc2)c1=O)c1c(C)n(C)n(-c2ccccc2)c1=O     inhibition       -12.6
7  Cc1cc(C)c(C(=O)Nc2ccc(S(=O)(=O)Nc3onc(C)c3C)cc2)c(C)c1     inhibition         0.3

Turning to the following compound.
May I ask what inhibition has been recorded for Cc1ccc(C)c(N(CC(=O)NC2CCCC2)C(=O)CCCC(=O)Nc2ccccn2)c1 ?
-18.3
